MEASURED_TARGET: mouse NMDA receptor (NR1 subunit and NR2B subunit co-expressed in HEK293 cells) (Mus musculus, UniProt P35438+Q01097)
Construct: expressed in transfected cells; host or cells: HEK293 cells, transient, pcDNA 3.1 plasmids
Sequence (Q01097 27-1482, other chains not shown): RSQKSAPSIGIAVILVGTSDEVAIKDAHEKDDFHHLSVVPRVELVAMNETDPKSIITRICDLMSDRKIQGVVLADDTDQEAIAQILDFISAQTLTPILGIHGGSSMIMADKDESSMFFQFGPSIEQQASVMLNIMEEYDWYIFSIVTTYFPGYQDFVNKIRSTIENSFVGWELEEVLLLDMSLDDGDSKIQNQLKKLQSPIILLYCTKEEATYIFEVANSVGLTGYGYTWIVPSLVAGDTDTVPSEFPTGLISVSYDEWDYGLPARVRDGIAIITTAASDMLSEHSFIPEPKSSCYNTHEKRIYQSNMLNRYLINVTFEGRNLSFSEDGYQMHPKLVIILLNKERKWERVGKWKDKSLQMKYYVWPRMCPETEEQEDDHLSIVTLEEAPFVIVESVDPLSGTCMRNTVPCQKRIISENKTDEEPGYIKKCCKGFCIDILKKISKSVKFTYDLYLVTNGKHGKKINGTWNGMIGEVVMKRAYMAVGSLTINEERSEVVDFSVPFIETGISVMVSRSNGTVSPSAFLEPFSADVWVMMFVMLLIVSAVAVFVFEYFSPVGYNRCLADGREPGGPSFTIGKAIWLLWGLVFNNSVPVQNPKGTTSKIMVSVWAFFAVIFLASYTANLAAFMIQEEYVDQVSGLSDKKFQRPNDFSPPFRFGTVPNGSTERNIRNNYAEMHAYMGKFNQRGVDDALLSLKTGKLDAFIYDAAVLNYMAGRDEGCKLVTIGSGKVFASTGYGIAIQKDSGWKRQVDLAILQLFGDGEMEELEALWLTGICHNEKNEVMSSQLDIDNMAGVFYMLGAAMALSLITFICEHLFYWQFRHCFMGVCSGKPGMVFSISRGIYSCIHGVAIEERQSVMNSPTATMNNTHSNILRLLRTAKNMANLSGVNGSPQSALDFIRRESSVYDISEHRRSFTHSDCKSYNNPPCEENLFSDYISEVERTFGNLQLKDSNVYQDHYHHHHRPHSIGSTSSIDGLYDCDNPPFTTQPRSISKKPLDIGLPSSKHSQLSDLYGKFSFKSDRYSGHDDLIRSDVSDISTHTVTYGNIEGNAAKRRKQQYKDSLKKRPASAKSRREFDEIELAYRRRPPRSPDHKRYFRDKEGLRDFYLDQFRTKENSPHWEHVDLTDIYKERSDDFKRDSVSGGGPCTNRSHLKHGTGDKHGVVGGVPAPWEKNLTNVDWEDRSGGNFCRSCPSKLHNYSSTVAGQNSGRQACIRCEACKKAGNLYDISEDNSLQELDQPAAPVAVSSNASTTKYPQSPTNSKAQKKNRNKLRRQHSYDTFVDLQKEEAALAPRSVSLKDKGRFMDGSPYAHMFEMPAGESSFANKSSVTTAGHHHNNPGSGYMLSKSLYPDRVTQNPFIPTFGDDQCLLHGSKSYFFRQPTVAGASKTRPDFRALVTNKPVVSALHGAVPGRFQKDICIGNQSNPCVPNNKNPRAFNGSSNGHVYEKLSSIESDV
ASSAY: Expression of NMDA receptor and measurement of Ca ion flow in amount (HEK293 cells, Fluo-3/AM, FDSS3000)
Assay type: cell-based
PARTICULARS: Ca ion flow in induced with glutamic acid 20 μM/glycine 2 μM, read-out: Ca2+ 1050
pIC50: −log10 of the molar value.
READOUT_TYPE: pIC50

Please review the entries below; each comes with its answer.
| CHEMICAL_STRUCTURE | ENDPOINT_VALUE |
| --- | --- |
| Cc1ccc(N2CCN(C(=O)C(=O)Nc3ccc4[nH]c(=O)oc4c3)[C@H](C)C2)cc1 | 7.66 |
| Cc1cc(N2CCN(C(=O)C(=O)Nc3ccc4[nH]c(=O)oc4c3)[C@H](C)C2)ccc1F | 7.24 |
| C[C@@H]1CN(C(=O)C(=O)Nc2cnc3[nH]c(=O)oc3c2)CCN1c1ccc(OC(F)(F)F)cc1 | 8.05 |
| COCc1ccc(N2CCN(C(=O)C(=O)Nc3ccc4[nH]c(=O)oc4c3)[C@H](C)C2)cc1 | 6.98 |
| Cc1ccc(N2CCN(C(=O)C(=O)Nc3ccc4[nH]c(=O)oc4c3)C[C@H]2C)cc1 | 8.05 |
| C[C@@H]1CN(C(=O)CNc2ccc3[nH]c(=O)oc3c2)CCN1c1ccc(Cl)cc1 | 7.92 |

[P] CC[C@@H]1CN(C(=O)C(=O)Nc2ccc3[nH]c(=O)oc3c2)CCN1c1ccc(Cl)cc1
[Q] O=C(Nc1ccc2[nH]c(=O)oc2c1)C(=O)N1CCN(c2cc(F)cc(F)c2)CC1
Which value of pIC50 is smaller, the one for P or the one for Q ? Write down the label attached to your selection.
Q
